measurement-target: Sigma non-opioid intracellular receptor 1 (Rattus norvegicus)
Sequence (Q9R0C9 whole entry): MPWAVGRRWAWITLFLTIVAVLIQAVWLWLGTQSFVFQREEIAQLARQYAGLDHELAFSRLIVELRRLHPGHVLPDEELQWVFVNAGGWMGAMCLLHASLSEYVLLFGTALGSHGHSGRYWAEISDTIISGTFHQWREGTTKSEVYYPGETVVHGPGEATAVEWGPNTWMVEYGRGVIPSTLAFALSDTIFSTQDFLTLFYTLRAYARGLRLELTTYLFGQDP
procedure-details: Displacement of (+)-[3H]pentazocine from sigma1 receptor in Sprague-Dawley rat cerebral membrane after 90 mins by liquid scintillation counting
Documented pKi across a set of compounds
On this scale, pKi is minus log10 of a concentration expressed in M (mol/L).

Worked set:
IN: Quick one: pKi of OC1C[C@@H]2CCCC[C@H]2CC1N1CCC(c2ccccc2Br)CC1 (relative stereo) ?
OUT: 6.82

IN: Quick one: pKi of OC1C[C@@H]2CCCC[C@H]2CC1N1CCC(c2ccccc2)CC1 (relative stereo) ?
OUT: 7.13

Next:
IN: Quick one: pKi of OC1C[C@@H]2CCCC[C@H]2CC1N1CCC(c2ccccc2I)CC1 (relative stereo) ?
OUT: 6.62

All values here come from ChEMBL document CHEMBL2062497.
